- ASSAY TARGET: Cannabinoid receptor 2 (Homo sapiens)
- Sequence (P34972 whole entry): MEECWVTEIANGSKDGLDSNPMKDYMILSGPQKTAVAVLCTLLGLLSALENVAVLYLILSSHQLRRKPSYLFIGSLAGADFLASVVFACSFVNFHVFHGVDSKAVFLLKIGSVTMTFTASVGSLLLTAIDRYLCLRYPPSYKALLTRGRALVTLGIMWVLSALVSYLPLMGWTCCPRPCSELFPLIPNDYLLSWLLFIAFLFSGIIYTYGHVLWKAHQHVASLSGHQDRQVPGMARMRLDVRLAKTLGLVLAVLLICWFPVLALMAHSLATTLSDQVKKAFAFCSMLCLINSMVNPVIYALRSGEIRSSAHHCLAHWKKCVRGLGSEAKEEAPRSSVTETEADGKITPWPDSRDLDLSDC
- EXPERIMENTAL PROTOCOL: Cross screening panel
pEC50: −log10 of the molar value.
RESULT TYPE: pEC50

Form field pEC50, entry `CNC(=O)c1cc(C(=O)NC2CC2)cn(Cc2ccccc2)c1=O` : < 5.00

====

- ASSAY TARGET: Aryl hydrocarbon receptor (Homo sapiens)
- Sequence (P35869 whole entry): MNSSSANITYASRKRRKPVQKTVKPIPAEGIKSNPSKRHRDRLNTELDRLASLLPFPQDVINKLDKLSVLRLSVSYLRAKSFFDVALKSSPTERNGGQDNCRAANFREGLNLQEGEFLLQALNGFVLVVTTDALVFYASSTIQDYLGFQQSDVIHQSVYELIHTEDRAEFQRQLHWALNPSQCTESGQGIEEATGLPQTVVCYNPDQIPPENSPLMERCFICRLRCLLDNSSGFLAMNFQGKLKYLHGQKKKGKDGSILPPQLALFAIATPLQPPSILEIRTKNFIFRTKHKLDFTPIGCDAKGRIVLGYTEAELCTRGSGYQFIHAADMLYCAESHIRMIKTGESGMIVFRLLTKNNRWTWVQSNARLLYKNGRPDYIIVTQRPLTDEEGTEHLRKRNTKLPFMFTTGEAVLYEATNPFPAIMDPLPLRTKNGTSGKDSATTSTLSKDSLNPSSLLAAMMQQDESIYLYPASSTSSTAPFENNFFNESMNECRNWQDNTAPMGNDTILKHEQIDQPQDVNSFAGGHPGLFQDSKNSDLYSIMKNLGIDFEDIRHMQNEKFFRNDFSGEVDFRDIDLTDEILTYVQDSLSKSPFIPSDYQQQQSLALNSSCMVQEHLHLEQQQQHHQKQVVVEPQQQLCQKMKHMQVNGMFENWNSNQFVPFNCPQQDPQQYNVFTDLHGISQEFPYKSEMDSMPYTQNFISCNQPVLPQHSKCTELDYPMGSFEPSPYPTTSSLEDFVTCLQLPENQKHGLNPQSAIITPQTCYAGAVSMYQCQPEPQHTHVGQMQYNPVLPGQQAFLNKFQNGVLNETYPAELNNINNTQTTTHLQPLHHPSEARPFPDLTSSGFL
- EXPERIMENTAL PROTOCOL: Cross screening panel
pEC50: −log10 of the molar value.
RESULT TYPE: pEC50

The value of pEC50 recorded for `CNC(=O)c1cc(C(=O)NC2CC2)cn(Cc2ccccc2)c1=O` when tested on Aryl hydrocarbon receptor (Homo sapiens) reads < 4.00

====

- ASSAY TARGET: Bromodomain and WD repeat-containing protein 1 (Homo sapiens)
- Sequence (Q9NSI6 whole entry): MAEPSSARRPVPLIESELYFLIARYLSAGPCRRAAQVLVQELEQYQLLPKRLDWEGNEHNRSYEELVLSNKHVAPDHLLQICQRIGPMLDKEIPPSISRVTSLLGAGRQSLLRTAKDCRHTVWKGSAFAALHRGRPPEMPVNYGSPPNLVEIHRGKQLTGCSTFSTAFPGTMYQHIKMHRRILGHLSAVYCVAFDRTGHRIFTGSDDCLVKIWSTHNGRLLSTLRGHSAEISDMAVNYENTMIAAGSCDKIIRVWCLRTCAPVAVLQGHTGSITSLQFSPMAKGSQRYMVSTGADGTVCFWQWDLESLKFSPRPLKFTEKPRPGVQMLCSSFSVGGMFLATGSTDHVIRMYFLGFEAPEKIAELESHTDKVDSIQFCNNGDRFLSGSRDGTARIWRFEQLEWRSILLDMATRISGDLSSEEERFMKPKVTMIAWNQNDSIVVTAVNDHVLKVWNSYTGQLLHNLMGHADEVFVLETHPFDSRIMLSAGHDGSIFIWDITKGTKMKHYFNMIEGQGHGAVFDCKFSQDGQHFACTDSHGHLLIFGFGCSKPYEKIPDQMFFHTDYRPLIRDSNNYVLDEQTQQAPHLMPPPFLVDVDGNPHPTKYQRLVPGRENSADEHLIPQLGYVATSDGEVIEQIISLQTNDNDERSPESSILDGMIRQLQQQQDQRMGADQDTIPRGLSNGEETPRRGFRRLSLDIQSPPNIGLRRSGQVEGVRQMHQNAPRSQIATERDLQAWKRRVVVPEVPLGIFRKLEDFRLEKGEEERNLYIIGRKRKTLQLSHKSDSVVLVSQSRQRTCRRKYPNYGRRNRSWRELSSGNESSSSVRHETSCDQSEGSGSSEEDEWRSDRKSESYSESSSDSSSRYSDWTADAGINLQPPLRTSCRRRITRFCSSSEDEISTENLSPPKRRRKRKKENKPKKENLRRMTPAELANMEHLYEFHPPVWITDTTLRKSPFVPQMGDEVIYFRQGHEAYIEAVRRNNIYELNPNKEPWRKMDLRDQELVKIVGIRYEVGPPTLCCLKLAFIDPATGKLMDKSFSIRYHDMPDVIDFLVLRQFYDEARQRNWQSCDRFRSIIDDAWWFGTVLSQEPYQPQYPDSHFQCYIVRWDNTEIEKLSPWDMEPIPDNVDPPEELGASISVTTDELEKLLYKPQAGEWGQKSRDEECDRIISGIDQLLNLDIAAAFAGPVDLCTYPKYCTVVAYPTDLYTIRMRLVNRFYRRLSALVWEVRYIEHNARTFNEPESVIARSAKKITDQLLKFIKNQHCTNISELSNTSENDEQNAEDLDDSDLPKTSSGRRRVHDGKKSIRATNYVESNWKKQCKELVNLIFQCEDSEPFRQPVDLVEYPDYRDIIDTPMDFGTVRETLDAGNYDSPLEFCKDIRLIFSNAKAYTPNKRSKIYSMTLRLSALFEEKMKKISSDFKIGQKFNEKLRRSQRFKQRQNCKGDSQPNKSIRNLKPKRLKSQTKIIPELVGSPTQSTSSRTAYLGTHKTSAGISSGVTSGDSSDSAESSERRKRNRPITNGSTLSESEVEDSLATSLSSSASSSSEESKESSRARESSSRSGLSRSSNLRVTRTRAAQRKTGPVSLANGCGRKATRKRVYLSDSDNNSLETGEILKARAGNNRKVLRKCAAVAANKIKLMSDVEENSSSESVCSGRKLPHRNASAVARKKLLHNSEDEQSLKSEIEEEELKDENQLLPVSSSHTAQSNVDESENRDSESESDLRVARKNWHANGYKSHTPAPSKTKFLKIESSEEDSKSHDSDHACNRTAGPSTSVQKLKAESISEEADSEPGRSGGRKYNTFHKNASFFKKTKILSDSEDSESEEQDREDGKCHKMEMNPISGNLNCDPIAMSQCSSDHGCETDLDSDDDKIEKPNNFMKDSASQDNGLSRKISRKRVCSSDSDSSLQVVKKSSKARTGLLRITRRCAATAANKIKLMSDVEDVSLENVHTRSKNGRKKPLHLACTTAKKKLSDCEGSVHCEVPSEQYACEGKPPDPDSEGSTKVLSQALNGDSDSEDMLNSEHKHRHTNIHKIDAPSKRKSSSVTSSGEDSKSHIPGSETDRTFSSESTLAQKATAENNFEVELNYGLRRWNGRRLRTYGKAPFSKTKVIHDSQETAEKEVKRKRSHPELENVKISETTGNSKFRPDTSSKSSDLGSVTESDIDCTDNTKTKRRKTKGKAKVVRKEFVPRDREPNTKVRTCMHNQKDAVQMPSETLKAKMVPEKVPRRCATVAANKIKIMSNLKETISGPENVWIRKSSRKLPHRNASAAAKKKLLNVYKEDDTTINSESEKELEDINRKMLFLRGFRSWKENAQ
- EXPERIMENTAL PROTOCOL: WDR9(2) DiscoverX BROMOscan
RESULT TYPE: Kd (µM)
Number only, in µM; omit the unit.

Form field Kd, entry `CNC(=O)c1cc(C(=O)NC2CC2)cn(Cc2ccccc2)c1=O` : 31.6

====

- ASSAY TARGET: 3',5'-cyclic-AMP phosphodiesterase 4B (Homo sapiens)
- Sequence (Q07343 whole entry): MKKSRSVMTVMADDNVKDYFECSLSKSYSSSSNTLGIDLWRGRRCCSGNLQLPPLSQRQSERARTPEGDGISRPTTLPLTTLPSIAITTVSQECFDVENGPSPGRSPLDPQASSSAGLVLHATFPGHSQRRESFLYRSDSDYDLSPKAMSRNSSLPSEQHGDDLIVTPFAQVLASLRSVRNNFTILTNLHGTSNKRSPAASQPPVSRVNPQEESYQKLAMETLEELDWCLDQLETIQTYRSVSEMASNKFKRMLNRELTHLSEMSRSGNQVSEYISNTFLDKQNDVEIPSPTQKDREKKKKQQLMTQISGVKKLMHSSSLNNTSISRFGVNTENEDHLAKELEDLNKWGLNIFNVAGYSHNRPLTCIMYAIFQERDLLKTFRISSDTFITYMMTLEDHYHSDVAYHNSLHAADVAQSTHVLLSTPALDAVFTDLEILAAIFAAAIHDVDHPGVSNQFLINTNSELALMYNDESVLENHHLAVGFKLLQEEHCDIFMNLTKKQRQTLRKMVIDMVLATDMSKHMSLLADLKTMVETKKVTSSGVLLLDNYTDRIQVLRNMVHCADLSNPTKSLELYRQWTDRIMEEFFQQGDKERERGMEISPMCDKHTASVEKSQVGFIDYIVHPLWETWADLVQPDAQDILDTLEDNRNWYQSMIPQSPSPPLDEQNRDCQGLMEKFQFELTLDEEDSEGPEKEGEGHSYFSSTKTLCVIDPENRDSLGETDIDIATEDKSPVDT
- EXPERIMENTAL PROTOCOL: Cross screening panel
RESULT TYPE: IC50

Form field IC50, entry `CNC(=O)c1cc(C(=O)NC2CC2)cn(Cc2ccccc2)c1=O` : > 100 µM

====

- ASSAY TARGET: Alpha-2C adrenergic receptor (Homo sapiens)
- Sequence (P18825 whole entry): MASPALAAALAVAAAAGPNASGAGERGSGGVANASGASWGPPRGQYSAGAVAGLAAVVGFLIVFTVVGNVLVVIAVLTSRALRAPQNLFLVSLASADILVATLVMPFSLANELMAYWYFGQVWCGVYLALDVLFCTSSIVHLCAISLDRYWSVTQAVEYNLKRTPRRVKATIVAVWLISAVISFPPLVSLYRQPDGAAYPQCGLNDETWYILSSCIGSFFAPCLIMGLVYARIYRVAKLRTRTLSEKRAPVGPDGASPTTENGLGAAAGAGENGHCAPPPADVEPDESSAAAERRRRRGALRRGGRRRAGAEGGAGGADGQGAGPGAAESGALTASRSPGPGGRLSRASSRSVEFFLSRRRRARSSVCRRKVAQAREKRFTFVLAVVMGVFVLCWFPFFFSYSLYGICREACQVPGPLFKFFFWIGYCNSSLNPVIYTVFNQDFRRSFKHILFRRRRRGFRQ
- EXPERIMENTAL PROTOCOL: Cross screening panel
RESULT TYPE: EC50

Form field EC50, entry `CNC(=O)c1cc(C(=O)NC2CC2)cn(Cc2ccccc2)c1=O` : > 100 µM
